Target under test: Biotin QP004.3 (biotin-PDL1-FC) (human) (UniProt Q9NZQ7)
Sequence (Q9NZQ7 19-238 limits assumed): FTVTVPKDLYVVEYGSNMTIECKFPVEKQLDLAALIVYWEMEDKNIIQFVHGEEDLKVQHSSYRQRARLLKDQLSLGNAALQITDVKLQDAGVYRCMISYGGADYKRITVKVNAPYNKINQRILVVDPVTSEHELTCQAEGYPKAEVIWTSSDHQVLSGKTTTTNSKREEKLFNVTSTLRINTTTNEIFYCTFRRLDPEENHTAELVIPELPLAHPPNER
Method: binding ELISA, antibody coated, biotin-PDL1-FC titrated
Reported property: ELISA reading at 0.1667 µg/ml biotin-PDL1-FC

* QP1166 (Fc fusion, not shown: a dimerising Fc or GST) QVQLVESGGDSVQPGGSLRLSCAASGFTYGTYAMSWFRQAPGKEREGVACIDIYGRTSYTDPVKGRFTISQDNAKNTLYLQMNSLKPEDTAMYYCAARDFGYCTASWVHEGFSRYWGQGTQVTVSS | 3.13
* QP320 (Fc fusion, not shown: a dimerising Fc or GST) EVQLLESGGGLVQPGGSLRLSCAASGFTYGTYAMSWVRQAPGKGLEWVSCIDIYGRASYTDPVKGRFTISRDNSKNTLYLQMNSLRAEDTAVYYCAARDFGYCTASWVHEGFSRYWGQGTLVTVSS | 0.0957

P. QP324 (Fc fusion, not shown: a dimerising Fc or GST) EVQLLESGGGLVQPGGSLRLSCAASGFTYGTYAMSWVRQAPGKGLEWVACIDIYGRTSYTDPVKGRFTISQDNSKNTLYLQMNSLRAEDTAVYYCAARDFGYCTASWVHEGFSRYWGQGTLVTVSS
Q. QP325 (Fc fusion, not shown: a dimerising Fc or GST) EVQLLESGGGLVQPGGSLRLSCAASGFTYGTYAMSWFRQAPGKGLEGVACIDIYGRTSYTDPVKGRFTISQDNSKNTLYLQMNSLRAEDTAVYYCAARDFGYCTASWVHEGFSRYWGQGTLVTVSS
Incoming: // which entry reports the smaller ELISA reading at 0.1667 µg/ml biotin-PDL1-FC, P or Q ? API: response body contains the label of the selected item.
Outgoing: P
(P: 0.129, Q: 3.11)

Where do these numbers come from? They come from patent US20230183352A1.
